Data origin, for the record: the supplement of paper PMC7156485

system: TDF; assay: cell number relative to DMSO (% of DMSO); higher = more cells (less growth inhibition / toxicity); details: concentration: 10 µM; 24 h;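 also: TDF denotes transformed human dermal fibroblasts of mesenchymal origin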
Entry flag: True if cell number reaches 90; False if it does not.

compound	category_label
COc1cc(-c2oc3cc(O)cc(O)c3c(=O)c2O)ccc1O	True
CC(C)NCC(O)c1ccc2ccccc2c1.Cl (stereo not given) [Pronethalol.HCl]	True
Cc1cc(Nc2cc(N3CCN(C)CC3)nc(Sc3ccc(NC(=O)C4CC4)cc3)n2)n[nH]1	False
CNC(=O)c1ccccc1Sc1ccc2c(C=Cc3ccccn3)n[nH]c2c1	False

* * *

test system: HCC1569; assay: cell number relative to DMSO (% of DMSO); higher = more cells (less growth inhibition / toxicity); settings: concentration: 10 µM; 24 h
The following compounds are shown together with reported cell number values.
property: cell number

compound	target_under_test	numeric_readout
Cl.O=S(=O)(c1cccc2c(I)cccc12)N1CCCNCC1	HCC1569	105
CC(CCc1ccccc1)NCC(O)c1ccc(O)c(C(N)=O)c1.Cl (stereo not drawn) [Labetalol hydrochloride]	HCC1569	101
CCCCCC(O)CC(=O)CCc1ccc(O)c(OC)c1 (stereo not drawn)	HCC1569	99.3
CN(C(=O)CCCOc1ccc2[nH]c(=O)ccc2c1)C1CCCCC1 [Cilostamide]	HCC1569	101
NC(=O)c1ccc(-c2nc(-c3ccc4c(c3)OCCO4)c(-c3ccccn3)[nH]2)cc1	HCC1569	97.4
NC(N)=NCc1cccc(I)c1	HCC1569	108
Cc1nc2ccc(Oc3ccc(F)cc3)cc2c(=O)n1C[C@H]1CCCN(C(C)C)C1.Cl	HCC1569	94.1
Cl.NCCc1ccc(O)c(O)c1 [Dopamine hydrochloride]	HCC1569	106
Cl.Cl.NCCNS(=O)(=O)c1cccc2cnccc12 [H-9 dihydrochloride]	HCC1569	102
N[C@H](CO)C(=O)O	HCC1569	104
CCOc1nc2cccc(C(=O)O)c2n1Cc1ccc(-c2ccccc2-c2nc(=O)o[nH]2)cc1	HCC1569	79.7
O=C(NCc1ccc2c(c1)OCO2)c1c(Cl)cccc1Cl [N-(1,3-benzodioxol-5-ylmethyl)-2,6-dichlorobenzamide]	HCC1569	97.3
CC(=O)Oc1ccccc1C(=O)Oc1ccc(CO[N+](=O)[O-])cc1 [4-[(nitrooxy)methyl]phenyl 2-(acetyloxy)benzoate]	HCC1569	50.1
O=c1oc2cc(O)ccc2c2oc3cc(O)ccc3c12	HCC1569	99.9
Cc1cc(C(C)(C)C)c(O)c(C(C)(C)C)c1	HCC1569	99.4
Cc1nc(N)sc1-c1ccnc(Nc2ccc(N3CCOCC3)cc2)n1	HCC1569	62.2
Brc1c(Br)c(Br)c2n[nH]nc2c1Br	HCC1569	104
CC1(C)OC2CC(=O)OCC23C1CC(=O)C1(C)C3CCC2(C)C(c3ccoc3)OC(=O)C3OC321 (stereo not drawn)	HCC1569	103
